# target.or.test.system: T1, EBOV GP on pseudotyped lentiviral particles (Ebola virus (EBOV), UniProt Q05320 33-676)
# T1 sequence: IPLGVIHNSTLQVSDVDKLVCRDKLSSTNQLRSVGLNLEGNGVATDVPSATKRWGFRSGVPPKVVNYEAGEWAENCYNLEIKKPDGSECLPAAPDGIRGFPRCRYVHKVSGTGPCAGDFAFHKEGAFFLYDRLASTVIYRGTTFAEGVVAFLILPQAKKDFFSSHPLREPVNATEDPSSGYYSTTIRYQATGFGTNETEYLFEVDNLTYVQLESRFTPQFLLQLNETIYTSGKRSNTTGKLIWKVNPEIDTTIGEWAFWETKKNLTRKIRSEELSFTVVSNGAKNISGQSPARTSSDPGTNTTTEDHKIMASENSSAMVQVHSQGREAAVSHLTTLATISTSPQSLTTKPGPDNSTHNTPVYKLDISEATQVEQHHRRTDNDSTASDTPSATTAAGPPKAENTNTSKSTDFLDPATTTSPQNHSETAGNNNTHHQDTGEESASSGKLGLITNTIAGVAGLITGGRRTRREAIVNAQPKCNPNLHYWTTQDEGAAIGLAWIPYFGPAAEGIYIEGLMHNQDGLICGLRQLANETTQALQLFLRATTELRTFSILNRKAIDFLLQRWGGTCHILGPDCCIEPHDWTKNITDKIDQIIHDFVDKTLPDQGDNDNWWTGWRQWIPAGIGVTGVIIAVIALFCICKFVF
# assay.procedure: cell-based or functional assay
measure: % EBOV Neut. (10 µg/mL)

binder | % EBOV Neut. (10 µg/mL)
EboV.YD.02 IgG (antibody, V domains shown) VH: QVQLVQSGAEVKKPGTSVKISCKASGYSFTSKYMHWVRQAPGQGLEWMGKINPSGGRRDYAQKFQGRVTMTRDTSTSTVYMELSSLRSGDTAVYYCARDMHGVLSWYHALDYWGQGTLVTVSS VL: DIRVTQSPSSLSTSVGDRVTITCRASQDIGRYLNWYQQKPGKAPKLLIYGASSLQSGVPSRFSGSGSGTDFTLTISSLQPEDFATYYCQQGYRIPITFGQGTRLEIK | 70.8%

Quick one: % EBOV Neut. (10 µg/mL) for EboV.YD.03 IgG (antibody, V domains shown) VH: QVQLQESGPGLVKPSETLSLTCTVSGDSLSSSYWSWIRQSAGKGLEYIGRTYVSGNTKYNPSLKSRVTMSVDTSKNQFSLRLTSVTAADTAVYYCARIRVLPAAMLRGDYWYFDLWGRGTLVTVSS VL: SYELTQLPSVSVSPGQTASITCSGDKVENKYVCWYQQKSGQSPVLVIYEDSKRPSGIPERFSGSNSGNTATLTISGTQTMDEADYFCQAWDSSIGVFGTGTKLTVL ? 97.3%

Proceed to EboV.YD.01 IgG (antibody, V domains shown) VH: QVRLVQSGGGLVKPGGSLRLSCAASGFTFSTFAMHWVRQAPGKGLEWVSSISRSSGSINYADSVKGRFTISRDNAKNSLFLQMNSLRADDTAVYYCARENTIPFGGGVVLERASHFDYWGQGTTVTVSS VL: DIRVTQSPSSLSASVGDRVTIICRASQSSSTFLNWYQQKPGKAPNLLIYAASSLQSGVPSRFSGSGSGTDFTLTISSLQPEDFATYYCQQSYSAPYTFGQGTKVDIK 55.1%

Could you do the same for EboV.YD.04 IgG (antibody, V domains shown) VH: QVQLVESGGGLVKPGGSLRLSCAASGFMFSNAWMNWVRQAPGKGLEWVGRIKSRSDGGTTDYAAPVKGRFTFSREDSKNMLYLQMNSLKREDTAVYYCTTRVSIFRGPIEDVWGQGTTVTVSS VL: QPVLTQPPSVSGAPGQRVTISCAGSSSNIGAGYDVYWYQQLPGTAPKLLIYGNNNRPSGVPDRFSGSKSGTSASLAITGLQAEDEAEYYCQSYDSSLRDSYVFGSGTKVTVL , please? 98.8%
